Reported Kd is given for each of the following binders.
TARGET SYSTEM: T1, EsCas13d, nuclease-dead (Eubacterium siraeum, UniProt B0MS50, R295A;H300A;R849A;H854A)
T1 sequence: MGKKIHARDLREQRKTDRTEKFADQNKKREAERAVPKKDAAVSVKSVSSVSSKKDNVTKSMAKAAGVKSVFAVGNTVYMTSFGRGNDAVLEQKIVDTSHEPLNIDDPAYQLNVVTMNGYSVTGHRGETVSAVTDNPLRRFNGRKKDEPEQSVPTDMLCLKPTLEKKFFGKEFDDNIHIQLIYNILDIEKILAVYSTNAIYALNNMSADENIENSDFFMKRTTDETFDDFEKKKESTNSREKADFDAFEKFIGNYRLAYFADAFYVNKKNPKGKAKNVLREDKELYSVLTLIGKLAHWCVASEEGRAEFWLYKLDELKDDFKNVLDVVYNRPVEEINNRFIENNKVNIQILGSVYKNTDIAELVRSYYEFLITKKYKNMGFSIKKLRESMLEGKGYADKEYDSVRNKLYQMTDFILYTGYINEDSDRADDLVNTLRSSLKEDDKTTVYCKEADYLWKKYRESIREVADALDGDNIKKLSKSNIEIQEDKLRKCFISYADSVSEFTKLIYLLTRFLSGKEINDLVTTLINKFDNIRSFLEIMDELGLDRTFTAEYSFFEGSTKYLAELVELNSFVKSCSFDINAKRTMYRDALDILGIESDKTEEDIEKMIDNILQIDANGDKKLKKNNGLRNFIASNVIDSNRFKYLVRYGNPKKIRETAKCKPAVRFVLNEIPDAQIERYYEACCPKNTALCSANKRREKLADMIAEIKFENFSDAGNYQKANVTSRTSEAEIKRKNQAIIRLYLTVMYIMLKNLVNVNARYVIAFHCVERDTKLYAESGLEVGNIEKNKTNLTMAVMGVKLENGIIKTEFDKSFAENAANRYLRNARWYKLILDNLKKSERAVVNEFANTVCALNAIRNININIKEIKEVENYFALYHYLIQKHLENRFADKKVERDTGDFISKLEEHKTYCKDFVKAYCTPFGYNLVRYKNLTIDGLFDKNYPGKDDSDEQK
PROTOCOL: crRNA (strand 1, pre-loaded); Mg2+; 40 mM Tris-HCl pH 7.5, 150 mM NaCl, 6 mM MgCl2, 1 mM DTT, 0.1% Tween-20, 0.2 mg/ml BSA; 25 C; 10 min per concentration, then washed
CONDITION SUMMARY: tags: His6-TwinStrep-SUMO cleaved; N-terminal SNAP kept (SNAP-Surface 488); label: 3' end held by stalled T7 RNA polymerase
State the answer as a number, implicitly in nM.

Examples from the recorded data:
BINDER: target 1 insA 3' of 8,insA 3' of 3 (mixed) RNA 1: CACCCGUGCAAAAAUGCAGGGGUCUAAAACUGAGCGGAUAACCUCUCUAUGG RNA 2: GGGAAUGGAUCCACAUCUACGAAUUCGUACCAUAGAGAGGUUAUACCGCUACACCGAGAUCGGAAGAGCACACGU
UNITS SYMBOL: nM
Kd: 10.4

BINDER: target 1 insA 3' of 11,insA 3' of 2 (mixed) RNA 1: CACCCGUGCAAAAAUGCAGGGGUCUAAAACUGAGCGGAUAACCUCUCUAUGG RNA 2: GGGAAUGGAUCCACAUCUACGAAUUCGUACCAUAGAGAGGUAUAUCCGCUCAACCGAGAUCGGAAGAGCACACGU
UNITS SYMBOL: nM
Kd: 16.1

BINDER: target 2 MT 5'PFS CUC 3'PFS AUU (mixed) RNA 1: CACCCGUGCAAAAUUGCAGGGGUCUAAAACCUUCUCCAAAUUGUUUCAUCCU RNA 2: GGGAAUGGAUCCACAUCUACGAAUUCCUCAGGAUGAAACAAUUUGGAGAAGAUUAGAUCGGAAGAGCACACGU
UNITS SYMBOL: nM
Kd: 2.2

The binder listed as target 1 MT 5'PFS UAC 3'PFS CGG (mixed) RNA 1: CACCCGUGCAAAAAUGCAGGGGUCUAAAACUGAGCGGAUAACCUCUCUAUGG RNA 2: GGGAAUGGAUCCACAUCUACGAAUUCUACCCAUAGAGAGGUUAUCCGCUCACGGAGAUCGGAAGAGCACACGU has a reported Kd of 44.5

Kd in this record for target 1 MT 5'PFS GGA 3'PFS UAA (mixed) RNA 1: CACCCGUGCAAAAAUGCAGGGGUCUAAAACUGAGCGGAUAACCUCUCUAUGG RNA 2: GGGAAUGGAUCCACAUCUACGAAUUCGGACCAUAGAGAGGUUAUCCGCUCAUAAAGAUCGGAAGAGCACACGU : 21.9

What the record says about target 1 insU 3' of 1,insU 3' of 1 (mixed) RNA 1: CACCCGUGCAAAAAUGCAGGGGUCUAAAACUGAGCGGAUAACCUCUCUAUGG RNA 2: GGGAAUGGAUCCACAUCUACGAAUUCGUACCAUAGAGAGGUUAUCCGCUCAUUCCGAGAUCGGAAGAGCACACGU : Kd is 11.3

Record summary for target 3 insU 3' of 13,insA 3' of 6 (mixed) RNA 1: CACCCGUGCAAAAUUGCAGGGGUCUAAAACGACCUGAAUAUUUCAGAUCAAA RNA 2: GGGAAUGGAUCCACAUCUACGAAUUCGUUUUUGAUCUGAUAAUAUUCAAGGUCUGCAGAUCGGAAGAGCACACGU : reported Kd = 99

Input target 3 U2G,A11G (mixed) RNA 1: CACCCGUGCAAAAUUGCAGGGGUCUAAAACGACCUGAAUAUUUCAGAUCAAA RNA 2: GGGAAUGGAUCCACAUCUACGAAUUCGUUUUUGAUCUGAAGUAUUCAGGGCUGCAGAUCGGAAGAGCACACGU . Output Kd: 62.5
